pIC50: −log10 of the molar value.
// endpoint pIC50 / system UniProt:P08684
Sequence (P08684 whole entry): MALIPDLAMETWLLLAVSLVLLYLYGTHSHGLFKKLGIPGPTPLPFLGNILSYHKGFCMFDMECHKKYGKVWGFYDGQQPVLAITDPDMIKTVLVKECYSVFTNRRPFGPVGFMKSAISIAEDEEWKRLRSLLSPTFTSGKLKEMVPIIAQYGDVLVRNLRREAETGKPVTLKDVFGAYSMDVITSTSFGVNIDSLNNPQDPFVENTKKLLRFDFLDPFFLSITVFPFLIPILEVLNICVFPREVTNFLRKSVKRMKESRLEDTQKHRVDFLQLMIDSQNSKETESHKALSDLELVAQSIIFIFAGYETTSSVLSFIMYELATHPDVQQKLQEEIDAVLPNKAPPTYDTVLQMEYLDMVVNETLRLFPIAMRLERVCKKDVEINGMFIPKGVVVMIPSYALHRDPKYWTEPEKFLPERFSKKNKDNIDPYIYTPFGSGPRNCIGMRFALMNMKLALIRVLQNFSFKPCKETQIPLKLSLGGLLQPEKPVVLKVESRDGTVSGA

molecule | pIC50
C[C@@H](c1ccccc1-c1ccc(F)cc1)n1cncc1C(=O)N1CCC(NC2COC[C@H]2O)CC1 (stereo partly drawn) | 8.24
C[C@@H](c1ccccc1-c1ccc(F)cc1)n1cncc1C(=O)N1CCC2NC(=O)COC2(C)C1 (stereo partly drawn) | 8.32
C[C@@H](c1ccccc1-c1ccc(F)cc1)n1cncc1C(=O)N1CCC(N2CCC(F)C(O)C2)CC1 (stereo partly drawn) | 8.24
C[C@@H](c1ccccc1C1CCCC1)n1cncc1C(=O)N1CCC2NCCO[C@@H]2C1 (stereo partly drawn) | 8.26
C[C@@H](c1ccccc1-c1ccc(F)cc1)n1cncc1C(=O)N1CC[C@H]2NCCO[C@@H]2C1 | 8.24
C[C@@H](c1ccccc1-c1cc(F)cc(F)c1)n1cncc1C(=O)N1CCC2NCCO[C@@H]2C1 (stereo partly drawn) | 8.01
C[C@@H](c1ccccc1-c1ccc(F)cc1)n1cncc1C(=O)N1CCC(N2CCC(O)CC2)CC1 | 8.17
CO[C@@H]1CN(C2CCN(C(=O)c3cncn3[C@@H](C)c3ccccc3-c3ccc(F)cc3)CC2)CC[C@@H]1O | 8.21
CO[C@H]1CN(C2CCN(C(=O)c3cncn3[C@@H](C)c3ccccc3-c3ccc(F)cc3)CC2)C[C@@H]1O | 8.40
C[C@@H](c1ccccc1-c1ccc(F)cc1)n1cncc1C(=O)N1CCC(N2CCn3ncnc3C2)CC1 | 8.24
C[C@@H](c1ccccc1-c1ccc(F)cc1)n1cncc1C(=O)N1CCC(N2CCNC(=O)CC2)CC1 | 8.17
C[C@@H](c1ccccc1-c1ccc(F)cc1)n1cncc1C(=O)N1CC[C@@H](N2CCNC(=O)C2)[C@@H](F)C1 | 8.24
C[C@@H](c1ccccc1-c1ccc(F)cc1)n1cncc1C(=O)N1CCC(N2C[C@@H](O)[C@H](F)C2)CC1 | 8.39
C[C@@H](c1ccccc1-c1ccc(F)cc1)n1cncc1C(=O)N1CCC(N2C[C@H](O)[C@@H](F)C2)CC1 | 8.37
C[C@H]1CN(C(=O)c2cncn2[C@@H](C)c2ccccc2-c2ccc(F)cc2)CC[C@H]1N1CCNC(=O)C1 | 8.01
